System: Mus musculus
Experiment: Phototoxicity in Swiss albino mouse assessed as ear thickness at 140 mg/kg, po after 48 hrs of irradiation
Assay type: organism-based
Design: dose 140 mg/kg, route oral
Settings: in vivo
assay.metric: Activity (mm)
Just the number in mm, nothing appended.

Prompt: Recorded Activity of CCN(CC)C(=O)C1CCCN(c2cc3c(cc2F)c(=O)c(C(=O)O)c2sc4ccccc4n23)C1 (centres undefined) , please.
Response: 0.29

Prompt: Recorded Activity of O=C(O)c1c(=O)c2cc(F)c(N3CCC(O)(c4ccc(Cl)cc4)CC3)cc2n2c1sc1ccccc12 , please.
Response: 0.29

Prompt: Recorded Activity of CCn1cc(C(=O)O)c(=O)c2cc(F)c(N3CCNC(C)C3)c(F)c21 (centres undefined) [LOMEFLOXACIN] , please.
Response: 0.53

Prompt: Recorded Activity of O=C(O)c1c(=O)c2cc(F)c(N3CCC4(CC3)OCCO4)cc2n2c1sc1ccccc12 , please.
Response: 0.3
